assayed system: Cytochrome P450 1A2 (Homo sapiens, UniProt P05177);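 note: PubChem cytochrome P450 panel assay, CYP1A2 panel member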
Sequence (P05177 whole entry): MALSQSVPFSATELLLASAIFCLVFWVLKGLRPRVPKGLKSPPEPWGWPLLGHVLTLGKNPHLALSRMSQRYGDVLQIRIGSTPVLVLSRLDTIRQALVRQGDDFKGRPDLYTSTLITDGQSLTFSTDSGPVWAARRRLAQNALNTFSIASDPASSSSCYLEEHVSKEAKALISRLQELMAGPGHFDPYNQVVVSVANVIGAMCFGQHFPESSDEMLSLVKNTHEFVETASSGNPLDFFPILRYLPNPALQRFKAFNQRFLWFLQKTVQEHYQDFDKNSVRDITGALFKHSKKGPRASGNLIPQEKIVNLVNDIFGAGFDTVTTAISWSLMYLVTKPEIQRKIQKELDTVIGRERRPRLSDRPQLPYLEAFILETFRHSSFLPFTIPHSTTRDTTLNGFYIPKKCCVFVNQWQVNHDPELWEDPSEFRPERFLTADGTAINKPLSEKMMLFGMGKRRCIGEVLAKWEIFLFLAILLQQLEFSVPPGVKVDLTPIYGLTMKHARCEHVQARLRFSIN
measured metric: AC50

Here are 8 molecules together with their reported answers.
1. Cc1ccccc1NC(=O)c1ccc(N/N=C/c2ccccc2O)c([N+](=O)[O-])c1: 14.1 µM (inconclusive)
2. Cc1cc2ccccc2nc1SCC(=O)Nc1nc(-c2ccccc2)cs1: 0.2 µM (inconclusive)
3. Cc1cc(CC(=O)O)n(C)c1C(=O)c1ccc(Cl)cc1 [ZOMEPIRAC SODIUM]: 12.6 µM (inconclusive)
4. NCCCCCCCCCCNS(=O)(=O)c1cccc2c(Cl)cccc12: 15.8 µM (inconclusive)
5. Cc1noc(C)c1-c1ccc2ncnc(N3CCC(C(=O)O)CC3)c2c1: 25.1 µM (inconclusive)
6. Cc1ccc(CN2CC34C=CC(O3)C(C(=O)NCc3ccc5c(c3)OCO5)C4C2=O)cc1 (centres undefined): 17.8 µM (inconclusive)
7. CCCC/C=C/C(NC(=O)C(C)(C)C)c1ccccc1 (centres undefined): 20 µM (inconclusive)
8. COc1ccccc1N1CCN(CCCCN2C(=O)CCC2=O)CC1: 39.8 µM (inconclusive)

Below are 3 molecules. Give each one its AC50.
1. O=C=Nc1ccc(Cc2ccc(N=C=O)cc2)cc1.O=c1oc(=O)c2cc3c(=O)oc(=O)c3cc12
2. CN1CCN(c2ncc3nc(-c4cccc(C#N)c4)c(=O)n(C)c3n2)CC1
3. O=P(Nc1ccccc1)(Nc1ccccc1)Oc1cccc(Cl)c1

[out]
["5.01 µM (inconclusive)", "12.6 µM (inconclusive)", "15.8 µM (inconclusive)"]

For the 2 molecules below, give their AC50 values.
1. CCN(CC)Cc1c(O)c(Cl)cc2c3c(c(=O)oc12)CCCC3
2. CC1CCN(C(=S)c2ccc(O)cc2)CC1

[out]
1: 11.2 µM (inconclusive); 2: 14.1 µM (inconclusive)

[in] Lab note: need AC50 with Cytochrome P450 1A2 (Homo sapiens, UniProt P05177) for entry COc1cc2c(cc1OC)C(C(=O)Nc1ccccn1)C(c1cccnc1)N(C)C2=O (centres undefined) , please look it up.
[out] 25.1 µM (inconclusive)
